Reference source for all entries: PubChem BioAssay AID651821

Please provide measured inhibition for the entries that follow.
- ASSAY_PROTOCOL: binders of r(CAG) RNA repeats, primary screen, biochemical, fluorescence (AID 651821);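 note: 0% = DMSO alone and 100% = 100 µM mitoxantrone as full dye displacement; higher means more dye released from RNA so lower well fluorescence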
- ASSAY_CONTEXT: r(CAG) RNA repeat, TO-PRO-1 dye displacement fluorescence; at 3 µM; hits give high values
Hit rate of the full screen: of about 370,000 compounds, about 4,700 (1.3%) were called active. This is one part of a sample in which actives are shown more often than they occur.
Reply with just the number (in %).

input: Given "Cc1ccnc(NS(=O)(=O)c2ccc(NC(=O)c3oc4ccc(F)cc4c3C)cc2)n1" , state its recorded inhibition.
output: 33.3

input: Endpoint output: inhibition of "O=c1oc2ccccc2cc1-c1csc(Nc2ccc(O)cc2)n1" . Value?
output: 38.9

input: Dear colleague, I am looking for the recorded inhibition of the following compound: "CC[C@@H]1Cc2cc(O)ccc2C2=C1c1ccc(O)cc1C[C@H]2CC"
output: 6.76

input: Returns the measured inhibition for the input compound. Input: CC(=O)c1ccc(Nc2nc(C(N)c3ccccc3Cl)cs2)cc1 (stereo unspecified)
output: 2.58

input: Return reported inhibition; argument: "Cc1ccccc1NC(=O)Cn1nnc(-c2ccccc2F)n1"
output: 0.27

input: Bench note: what inhibition did "CCCCC[C@@H]1C=C(C(=O)O)[C@H](c2ccc(C#N)cc2)N1S(=O)(=O)c1ccc(C)cc1" show?
output: 62.3

input: What value of measured inhibition is listed for "N#Cc1ccc(OCCCN2CCC(C(O)(c3ccccc3)c3ccccc3)CC2)c(F)c1" ?
output: -1.54

input: Report inhibition for CNS(=O)(=O)c1ccc(NC(=O)C2CC(=O)N(c3ccc(Cl)cc3)C2)cc1 (stereo unspecified) please.
output: 6.47

input: Which inhibition value is on record for "Cc1ccnc(NS(=O)(=O)c2ccc(NC(=O)c3oc4ccccc4c3C)cc2)n1" ?
output: 33.1

input: For "Cc1noc(NS(=O)(=O)c2ccc(NC(=O)c3oc4ccc(F)cc4c3C)cc2)c1C" , what is its reported inhibition?
output: 75.7

input: Quick check: inhibition of "Cc1nnc(SCC(=O)NCc2cccs2)[nH]c1=O" ?
output: 1.73

====

- ASSAY_PROTOCOL: binders of r(CAG) RNA repeats, primary screen, biochemical, fluorescence (AID 651821);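 note: 0% = DMSO alone and 100% = 100 µM mitoxantrone as full dye displacement; higher means more dye released from RNA so lower well fluorescence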
- ASSAY_CONTEXT: r(CAG) RNA repeat, TO-PRO-1 dye displacement fluorescence; at 3 µM; hits give high values
The whole screen tested about 370,000 compounds, of which about 4,700 (1.3%) were called active. Many of the other results were omitted from the sample, so actives are more common in it than they were.
EXPERIMENTAL_READOUT: inhibition (%)
Write the number in % without appending the unit.

input: // lookup inhibition for "COc1cccc(Cn2cc(COC(=O)Nc3ccc(F)cc3)nn2)c1"
output: 0.76

input: Give its inhibition value. Item: Cc1nn2c(c1-c1ccccc1)N=C(c1ccco1)CC2c1ccccc1 (configuration not stated)
output: 11.8

input: Given the entry Cc1ccc(CN2CCCCC(NC(=O)C3CCCCC3)C2=O)cc1 (configuration not stated) , report its measured inhibition.
output: -0.58

input: Can you share its inhibition? I mean this compound: "O=C(C(=O)N1CCC(c2ccccc2)CC1)c1ccccc1"
output: 1.3

input: What value of inhibition has been recorded for this entry: "COc1ccc(Cn2ccc3ccc(-c4ccc5ccn(Cc6ccccc6C)c5c4)cc32)cc1"
output: 15.1

input: Which inhibition is reported for this compound? "Cc1cc(C)cc(NC(=O)N2CCC(N(C)CCC(C)C)CC2)c1"
output: 3.3

input: Look up inhibition for this compound: "CSc1nnc(NC(=O)c2nc(S(=O)(=O)Cc3ccc(C)cc3)ncc2Cl)s1"
output: 42.9

input: I am curious: what inhibition value has been reported for "COC(=O)Cc1nnn2c1[C@H](C)[C@H](c1ccccc1Br)OCC2" ?
output: 2.7

input: Form field: reported inhibition of "COc1ccc(-n2c(SCC(=O)NC3CCCC3)nnc2-c2ccncc2)cc1"
output: 3.34

input: What value of inhibition has been reported for the following compound? "Cc1ccc(Nc2nc(-c3ccc(O)cc3O)cs2)nc1"
output: 36.2

input: Entry under review: "O=S(=O)(Nc1ncnc2sccc12)c1cccc(F)c1" . Reported inhibition?
output: 5.08

input: # get_value(readout='inhibition', item= COc1ccc(C(CNC(=O)c2cccc(S(=O)(=O)Nc3ccccc3Cl)c2)N2CCOCC2)cc1 (configuration not stated) )
output: 46.8

input: What inhibition value was documented for this compound, "Cc1cccc(CS(=O)(=O)c2ncc(Cl)c(C(=O)Nc3ccc(F)cc3)n2)c1" ?
output: 2.26

input: Entry under review: CC1(C(=O)NS(=O)(=O)c2ccc(C#N)cc2)CCN1C(=O)c1ccc(C2CCCCC2)cc1 (configuration not stated) . Reported inhibition?
output: 46.9

input: Entry under review: "CC(=O)Nc1cnc(-c2ccc(O)cc2C)cn1" . Reported inhibition?
output: 1.38

input: State the recorded inhibition for this entry: "NC(=O)c1ncn([C@@H]2O[C@H](C(=O)O)[C@@H](O)[C@H]2O)n1"
output: 1.22

input: For the compound shown here, "O=C(C(=O)N1CCC(CNS(=O)(=O)Cc2ccccc2)CC1)c1cc2ccccc2o1" , give the reported inhibition.
output: 3.81
